These measurements were taken from paper PMC4846294.

- systemName: LAP (from porcine kidney microsomes) (Sus scrofa)
- Sequence (P15145 1-963): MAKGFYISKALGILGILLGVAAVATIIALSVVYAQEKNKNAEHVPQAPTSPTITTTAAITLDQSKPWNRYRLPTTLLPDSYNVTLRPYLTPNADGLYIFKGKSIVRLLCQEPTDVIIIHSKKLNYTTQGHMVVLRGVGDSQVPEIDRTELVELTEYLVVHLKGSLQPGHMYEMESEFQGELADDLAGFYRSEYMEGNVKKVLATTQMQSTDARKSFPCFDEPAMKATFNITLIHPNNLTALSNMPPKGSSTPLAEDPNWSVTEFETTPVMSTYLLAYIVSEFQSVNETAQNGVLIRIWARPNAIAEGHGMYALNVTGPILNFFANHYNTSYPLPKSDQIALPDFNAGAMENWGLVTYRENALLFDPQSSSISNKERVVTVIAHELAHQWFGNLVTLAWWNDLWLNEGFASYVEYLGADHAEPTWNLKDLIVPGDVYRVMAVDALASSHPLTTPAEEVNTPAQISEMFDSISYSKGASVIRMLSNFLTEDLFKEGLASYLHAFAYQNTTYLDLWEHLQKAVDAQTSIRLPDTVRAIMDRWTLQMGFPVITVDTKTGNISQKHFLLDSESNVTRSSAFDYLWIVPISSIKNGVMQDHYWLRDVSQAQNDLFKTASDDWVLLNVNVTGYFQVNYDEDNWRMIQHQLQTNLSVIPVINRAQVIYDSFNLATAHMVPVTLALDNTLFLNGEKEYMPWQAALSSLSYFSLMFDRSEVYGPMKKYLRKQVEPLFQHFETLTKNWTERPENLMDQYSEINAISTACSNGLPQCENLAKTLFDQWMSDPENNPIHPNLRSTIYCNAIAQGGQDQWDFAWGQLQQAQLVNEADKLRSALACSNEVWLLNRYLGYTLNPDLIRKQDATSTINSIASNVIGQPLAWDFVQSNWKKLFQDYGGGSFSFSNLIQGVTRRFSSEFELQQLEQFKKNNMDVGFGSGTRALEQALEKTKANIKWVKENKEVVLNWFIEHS
- testSummary: In vitro LAP cleavage assay
- Assay type: in vitro ADME
- setupConditions: area ratio of parent drug and prodrug (HPLC); pH 7.2, 37 °C
observedProperty: % Cleavage by LAP

COc1ccc2c(c1NC(=O)[C@@H](N)CO)CCCC=C2c1cc(OC)c(OC)c(OC)c1.Cl | < 10%
COc1ccc(/C=C/c2cc(OC)c(OC)c(OC)c2)c(NC(=O)CN)c1.Cl | 100%

Look up and state reported % Cleavage by LAP for "COc1ccc(/C=C\c2cc(OC)c(OC)c(OC)c2)c(NC(=O)CN)c1.Cl"
100%

Using the record for "COc1ccc(/C=C\c2cc(OC)c(OC)c(OC)c2)c(NC(=O)CN)c1NC(=O)CN.Cl.Cl" , state its measured % Cleavage by LAP.
<10-90%
